TARGET OF ASSAY: Protein Tat (Human immunodeficiency virus type 1 group M subtype B (isolate HXB2)(HIV-1), UniProt P04608);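 also: tat binding to TAR RNA read out by fluorescence polarization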
Sequence (P04608 whole entry): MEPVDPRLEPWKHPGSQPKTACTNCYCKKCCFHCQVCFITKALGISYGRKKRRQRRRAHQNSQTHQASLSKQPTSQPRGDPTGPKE
Type: functional
Activity calls are given as the source filed them.
Task for the reader: assign each of the following compounds its reported IC50.

Query: If you can, please state the reported IC50 value of COc1ccc(Br)cc1CNc1ccc(O)cc1 .
Result: 46.7 µM (inconclusive)

Query: If you can, please state the reported IC50 value of CC(C)C[C@H](NC(=O)c1[nH]cnc1C(=O)N1CCN(c2ccccc2)CC1)C(=O)OC(C)(C)C .
Result: > 100 µM (active)

Query: If you can, please state the reported IC50 value of CSc1oc(-c2ccco2)nc1S(=O)(=O)c1ccccc1 .
Result: > 100 µM (active)

Query: If you can, please state the reported IC50 value of O=C(CSc1nnc(C2CCCCC2)n1Cc1ccccc1)NCc1ccco1 .
Result: > 100 µM (active)
